experiment: tissue drug levels of free and liposomal vincristine (radioimmunoassay); format: in vivo, CD2 F1 mice; settings: mouse, lung, iv, 1 mg/kg, lung; 1.0 mg; 2h; read-out: vincristine level, lung

| Compound | concentration at 2 h |
| --- | --- |
| CC[C@]1(O)C[C@H]2CN(CCc3c([nH]c4ccccc34)[C@@](C(=O)OC)(c3cc4c(cc3OC)N(C=O)[C@H]3[C@@](O)(C(=O)OC)[C@H](OC(C)=O)[C@]5(CC)C=CCN6CC[C@]43[C@@H]65)C2)C1 [free vincristine, vincristine] | 77 ng/g |

---

Assay: tissue drug levels of free and liposomal vincristine (radioimmunoassay)
Type: in vivo, CD2 F1 mice
Details: mouse, liver, iv, 1 mg/kg, liver; 1.0 mg; 15'; read-out: vincristine level, liver
Description: CD2 F1 mice were administered vincristine as a free drug at a dose of 1 mg kg^-1 and liposomal entrapped vincristine at a dose of 1 mg kg^-1 and 5 mg kg^-1 via a lateral tail vein. At sequential time points, four mice in each treatment group were sacrificed and specific tissues were isolated and assayed for drug levels by radioimmunoassay as adapted in our laboratories.

| Molecule | concentration at 0.25 h (ng/g) |
| --- | --- |
| CC[C@]1(O)C[C@H]2CN(CCc3c([nH]c4ccccc34)[C@@](C(=O)OC)(c3cc4c(cc3OC)N(C=O)[C@H]3[C@@](O)(C(=O)OC)[C@H](OC(C)=O)[C@]5(CC)C=CCN6CC[C@]43[C@@H]65)C2)C1 [free vincristine, vincristine] | 161 |

---

assay: tissue drug levels of free and liposomal vincristine (radioimmunoassay); format: in vivo, CD2 F1 mice; conditions: mouse, lung, iv, 1 mg/kg, lung; 1.0 mg; 8h; read-out: vincristine level, lung
Observed Property: concentration at 8 h (ng/g)

| Molecule | Observed Property | Units Label | Readout Value |
| --- | --- | --- | --- |
| CC[C@]1(O)C[C@H]2CN(CCc3c([nH]c4ccccc34)[C@@](C(=O)OC)(c3cc4c(cc3OC)N(C=O)[C@H]3[C@@](O)(C(=O)OC)[C@H](OC(C)=O)[C@]5(CC)C=CCN6CC[C@]43[C@@H]65)C2)C1 [free vincristine, vincristine] | concentration at 8 h | ng/g | 58 |

---

experiment: tissue drug levels of free and liposomal vincristine (radioimmunoassay); assay type: in vivo, CD2 F1 mice; settings: mouse, kidney, iv, 1 mg/kg, kidney; 1.0 mg; 30'; read-out: vincristine level, kidney

| Compound | Units Label | concentration at 0.5 h |
| --- | --- | --- |
| CC[C@]1(O)C[C@H]2CN(CCc3c([nH]c4ccccc34)[C@@](C(=O)OC)(c3cc4c(cc3OC)N(C=O)[C@H]3[C@@](O)(C(=O)OC)[C@H](OC(C)=O)[C@]5(CC)C=CCN6CC[C@]43[C@@H]65)C2)C1 [free vincristine, vincristine] | ng/g | 62 |

---

test: tissue drug levels of free and liposomal vincristine (radioimmunoassay); assay type: in vivo, CD2 F1 mice; details: mouse, kidney, iv, 1 mg/kg, kidney; 1.0 mg; 4h; read-out: vincristine level, kidney

| Compound | concentration at 4 h (ng/g) |
| --- | --- |
| CC[C@]1(O)C[C@H]2CN(CCc3c([nH]c4ccccc34)[C@@](C(=O)OC)(c3cc4c(cc3OC)N(C=O)[C@H]3[C@@](O)(C(=O)OC)[C@H](OC(C)=O)[C@]5(CC)C=CCN6CC[C@]43[C@@H]65)C2)C1 [free vincristine, vincristine] | 20 |
